Each recorded value in this set is attributed to paper PMC3756011.

# assay notes: Oral pharmacokinetics of carbamazepine and carbamazepine 10,11-epoxide with and without BM pre-treatment
# Assay type: in vivo, male Sprague-Dawley rat
# conditions used: male, Sprague-Dawley, rat, plasma, po, 50 mg/kg, BM pretreated rats (31 mg/kg/day 7 days); carbamazepine 50 mg/kg oral; Mean ± SD; read-out: MRT
reported endpoint: MRT (h)

1) NC(=O)N1c2ccccc2C=Cc2ccccc21 [CBZ, carbamazepine] :: 10.7

----------
# assay notes: Oral pharmacokinetics of digoxin with and without BM pre-treatment
# Assay type: in vivo, male Sprague-Dawley rat
# conditions used: male, Sprague-Dawley, rat, plasma, po, 0.2 mg/kg, BM pretreated rats (31 mg/kg/day 7 days); digoxin 0.2 mg/kg oral
# Source text: Rats were divided in two groups (total 40 rats; 10 rats each group) for both probe drugs viz. control and BM pre-treated group. Pharmacokinetic parameters of probe drugs in plasma were derived from plasma concentration-time profile of probe drugs by Non-Compartmental analysis using WinNonlin Ver 5.1 (Pharsight Corporation, Mountain Veiw, CA).
reported endpoint: AUC(0-inf) (ng·h/mL)

1) C[C@H]1O[C@@H](O[C@H]2[C@@H](O)C[C@H](O[C@H]3[C@@H](O)C[C@H](O[C@H]4CC[C@@]5(C)[C@H](CC[C@@H]6[C@@H]5C[C@@H](O)[C@]5(C)[C@@H](C7=CC(=O)OC7)CC[C@]65O)C4)O[C@@H]3C)O[C@@H]2C)C[C@H](O)[C@@H]1O :: 70.7
